Below, each entry is listed alongside its reported concentration at 2 h.
Assay: Pharmacokinetic analysis of RA in an SH-SY5Y xenograft model (retinoid concentrations in plasma, liver, tumour by LC/MS)
Assay type: in vivo, CD-1 nude mice
Conditions: female, CD-1 nu/nu (athymic nude), mouse, tumour (SH-SY5Y xenograft), po, 100 mg kg^−1, after ATRA 100 mg kg^−1 oral; SH-SY5Y tumour; 2 h; label = retinoid measured; read-out: Tumour concentration, 2 h
Record the value in ng/g, omitting the unit from your answer.

CC1=C(/C=C/C(C)=C/C=C/C(C)=C\C(=O)O)C(C)(C)CCC1 [13cisRA, 13-cis-retinoic acid]	280

Pending compound:
Q. Which concentration at 2 h value belongs to CC1=C(/C=C/C(C)=C/C=C/C(C)=C/C(=O)O)C(C)(C)CCC1 [ATRA, all-trans-retinoic acid] ?
A. 9410

---

Form field: % Total retinoids, liver, 6 h (one value per entry).
Assay: Pharmacokinetic analysis of RA in an SH-SY5Y xenograft model (retinoid concentrations in plasma, liver, tumour by LC/MS)
Format: in vivo, CD-1 nude mice
Settings: after ATRA 100 mg kg^−1 oral; liver; 6 h; label = retinoid measured
Express your answer in %, writing the number without its unit.

In the examples that follow, each entry is paired with its recorded % Total retinoids, liver, 6 h.
CC1=C(/C=C/C(C)=C/C=C/C(C)=C\C(=O)O)C(C)(C)CCC1 [13cisRA, 13-cis-retinoic acid]	5
CC1=C(/C=C/C(C)=C/C=C/C(C)=C/C(=O)O)C(C)(C)CCC1 [ATRA, all-trans-retinoic acid]	46
CC1=C(/C=C/C(C)=C/C=C/C(C)=C\C(=O)O)C(C)(C)CCC1=O [13cis-4-oxoRA, 13-cis-4-oxo-RA]	4

Please find the next molecule below.
Q. Returns the measured % Total retinoids, liver, 6 h for the input molecule. Input: CC1=C(/C=C/C(C)=C/C=C/C(C)=C/C(=O)O)C(C)(C)CCC1=O [AT-4-oxoRA, all-trans-4-oxo-RA]
A. 45

---

Assay: Pharmacokinetic analysis of RA in an SH-SY5Y xenograft model (retinoid concentrations in plasma, liver, tumour by LC/MS)
Type: in vivo, CD-1 nude mice
Conditions: after ATRA 100 mg kg^−1 oral; plasma; 2 h; label = retinoid measured
Measured % Total retinoids, plasma, 2 h accompanies every entry in the list below.
Write the number in % without appending the unit.

CC1=C(/C=C/C(C)=C/C=C/C(C)=C/C(=O)O)C(C)(C)CCC1=O [AT-4-oxoRA, all-trans-4-oxo-RA]	6
CC1=C(/C=C/C(C)=C/C=C/C(C)=C\C(=O)O)C(C)(C)CCC1 [13cisRA, 13-cis-retinoic acid]	6

Attention now turns to another entry.
Q. Entry CC1=C(/C=C/C(C)=C/C=C/C(C)=C/C(=O)O)C(C)(C)CCC1 [ATRA, all-trans-retinoic acid] has what % Total retinoids, plasma, 2 h?
A. 88

---

Listing of recorded % Total retinoids, liver, 0.5 h by entry.
Assay: Pharmacokinetic analysis of RA in an SH-SY5Y xenograft model (retinoid concentrations in plasma, liver, tumour by LC/MS)
Format: in vivo, CD-1 nude mice
Settings: after ATRA 100 mg kg^−1 oral; liver; 0.5 h; label = retinoid measured
Provide the reading as a plain figure in %.

Example cases with answers are listed next.
CC1=C(/C=C/C(C)=C/C=C/C(C)=C\C(=O)O)C(C)(C)CCC1=O [13cis-4-oxoRA, 13-cis-4-oxo-RA]	1
CC1=C(/C=C/C(C)=C/C=C/C(C)=C/C(=O)O)C(C)(C)CCC1=O [AT-4-oxoRA, all-trans-4-oxo-RA]	11
CC1=C(/C=C/C(C)=C/C=C/C(C)=C/C(=O)O)C(C)(C)CCC1 [ATRA, all-trans-retinoic acid]	77

Q. Returns the measured % Total retinoids, liver, 0.5 h for the input molecule. Input: CC1=C(/C=C/C(C)=C/C=C/C(C)=C\C(=O)O)C(C)(C)CCC1 [13cisRA, 13-cis-retinoic acid]
A. 11

Measured values drawn from paper PMC2359919 for this set.
